Please respond with reported half-life for every item in the list.
assay: Half life in Wistar rat plasma at 0.3 mg/kg, it administered as suspension; type: ADME, organism-based; details: inhaled or intranasal
Give bare numbers, in min.

Query Cc1ccn2nc([C@H](C)Nc3ncnc(N)c3-c3ccc(O)c(F)c3)n(-c3ccccc3)c(=O)c12 yields half-life of 66

Now let's try a different one.
Query Cc1ccn2nc([C@H](C)Nc3ncnc4[nH]cc(-c5cc(NS(C)(=O)=O)cc6[nH]ccc56)c34)n(-c3ccccc3)c(=O)c12 yields half-life of 192

----------
experiment: Volume of distribution at steady state in Wistar rat at 1 mg/kg, iv; format: ADME, organism-based; settings: in vivo, read-out: Vdss
Please respond with reported Vd for every item in the list.
Give bare numbers, in L/kg.

Query Cc1ccn2nc([C@H](C)Nc3ncnc(N)c3-c3ccc(O)c(F)c3)n(-c3ccccc3)c(=O)c12 yields Vd of 5.2

Now let's try a different one.
Query Cc1ccn2nc([C@H](C)Nc3ncnc4[nH]cc(-c5cc(NS(C)(=O)=O)cc6[nH]ccc56)c34)n(-c3ccccc3)c(=O)c12 yields Vd of 5.2
